The reported measurements were obtained from patent US7060678B2.

tested on: MiaPaCa.2 (human pancreas); experiment: MTT cytotoxicity assay, MiaPaCa.2 cells; type: cell-based; conditions: human, 48 hours, 10 nM
Starred links: 1 amine or outer side, 2 acyl side, 3 side chain; linkers in the order of their positions; H or OH if unused. Non-standard residues stand in square brackets, D forms with d. Residues, ends and D or L forms follow the SMILES beside them. 2Furoyl(5-aminomethyl) = O=C(c1ccc(CN[*:1])o1)[*:2]; X2 = O=C([C@@H]1CC[C@H](CN[*:1])O1)[*:2]; X1 = O=C(C1CCC(CN[*:1])O1)[*:2]
Observation Type: Percent Cytotoxicity (%)
Answers are plain numbers, in %.

Provide reported Percent Cytotoxicity for each item, in the same order as listed.
1. CSCC[C@H](NC(=O)[C@@H](N)CC(C)C)C(=O)NCc1ccc(C(=O)N[C@@H](Cc2ccc(O)cc2)C(=O)N[C@@H](CC(C)C)C(=O)N[C@@H](CCCCN)C(=O)O)o1 [SEQ ID NO: 18, Leu-Met-Saa1-Tyr-Leu-Lys] (H-LM[2Furoyl(5-aminomethyl)]YLK-OH)
2. CSCC[C@H](NC(=O)[C@@H](N)CC(C)C)C(=O)N[C@@H](Cc1ccc(O)cc1)C(=O)NCC1CCC(C(=O)N[C@@H](Cc2ccc(O)cc2)C(=O)N[C@@H](CC(C)C)C(=O)N[C@@H](CCCCN)C(=O)O)O1 (stereo partly drawn) [SEQ ID NO: 12, Leu-Met-Tyr-Saa3-Tyr-Leu-Lys] (H-LMY[X1]YLK-OH)
3. CSCC[C@H](NC(=O)[C@@H](N)CC(C)C)C(=O)N[C@@H](Cc1ccc(O)cc1)C(=O)NC[C@H]1O[C@H](C(=O)N[C@H](C(=O)N[C@@H](Cc2ccc(O)cc2)C(=O)N[C@@H](CC(C)C)C(=O)N[C@@H](CCCCN)C(=O)O)[C@@H](C)O)[C@@H](OCc2ccccc2)[C@@H]1OCc1ccccc1 [SEQ ID NO: 3, Leu-Met-Tyr-Saa2-Thr-Tyr-Leu-Lys]
4. CSCC[C@H](N)C(=O)NCc1ccc(C(=O)N[C@@H](Cc2ccc(O)cc2)C(=O)N[C@@H](CC(C)C)C(=O)O)o1 [SEQ ID NO: 14, Met-Saa1-Tyr-Leu]
5. CSCC[C@H](NC(=O)[C@@H](N)CC(C)C)C(=O)N[C@@H](Cc1ccc(O)cc1)C(=O)NCc1ccc(C(=O)N[C@@H](Cc2ccc(O)cc2)C(=O)N[C@@H](CC(C)C)C(=O)N[C@@H](CCCCN)C(=O)O)o1 [SEQ ID NO: 10, Leu-Met-Tyr-Saa1-Tyr-Leu-Lys] (H-LMY[2Furoyl(5-aminomethyl)]YLK-OH)

[21.0, 30.6, 24.0, 13.9, 12.0]

Provide reported Percent Cytotoxicity for each item, in the same order as listed.
1. CSCC[C@H](N)C(=O)NC[C@H]1CC[C@@H](C(=O)N[C@@H](Cc2ccc(O)cc2)C(=O)N[C@@H](CC(C)C)C(=O)O)O1 [SEQ ID NO: 17, Met-Saa4-Tyr-Leu]
2. CSCC[C@H](NC(=O)[C@@H](N)CC(C)C)C(=O)N[C@@H](Cc1ccc(O)cc1)C(=O)NC[C@H]1CC[C@@H](C(=O)N[C@@H](Cc2ccc(O)cc2)C(=O)N[C@@H](CC(C)C)C(=O)N[C@@H](CCCCN)C(=O)O)O1 [SEQ ID NO: 13, Leu-Met-Tyr-Saa4-Tyr-Leu-Lys] (H-LMY[X2]YLK-OH)

1: 21.8; 2: 14.0
